- Test system: Bacillus cereus ATCC 11778
- ASSAY PROTOCOL: Antibacterial assay (CLSI), B. cereus
- Assay type: cell-based
- EXPERIMENTAL SETUP: Bacillus cereus, ATCC11778; Inactive at >128 μg/mL
MEASURE NAME: MIC (mg/L)

Some molecules with recorded MIC:
CC(=O)OC1CC2(C)C3CCc4cocc4C3(C)CC(OC(=O)CC(C)=CC(=O)O)C2C2(C)CCCC(C)(C)C12 (stereo not shown) : 32
CC(=O)O[C@H]1C[C@]2(C)[C@H]([C@H](OC(=O)/C=C(\C)CC(=O)O)C[C@]3(C)c4cocc4CC[C@@H]23)[C@@]2(C)CCCC(C)(C)[C@H]12 : 16

1. CC(=O)OC1CC2(C)C3CCC4=C(C(O)OC4=O)C3(C)CC(OC(=O)C=C(C)CC(=O)O)C2C2(C)CCCC(C)(C)C12 (stereo not shown)
2. CC(=O)OC1CC2(C)C3CCC4=C(COC4=O)C3(C)CC(OC(=O)CC(C)=CC(=O)O)C2C2(C)CCCC(C)(C)C12 (stereo not shown)
Hi, I'm comparing 1 with 2 and wondering which one has the bigger number for MIC. Any idea? // respond with label for picked entry 2

###

- Test system: Bacillus subtilis ATCC 6633
- ASSAY PROTOCOL: Antibacterial assay (CLSI), B. subtilis
- Format: cell-based
- EXPERIMENTAL SETUP: Inactive at >128 μg/mL
MEASURE NAME: MIC, Bacillus subtilis ATCC 6633 (µg/mL)

NC[C@H]1O[C@H](O[C@H]2[C@H](O)[C@@H](O[C@H]3O[C@H](CO)[C@@H](O)[C@H](N)[C@H]3O)[C@H](N)C[C@@H]2N)[C@H](O)[C@@H](O)[C@@H]1O [Kanamycin, reference compound] : 8
CC(=O)O[C@H]1C[C@]2(C)[C@H]([C@H](OC(=O)/C=C(\C)CC(=O)O)C[C@]3(C)c4cocc4CC[C@@H]23)[C@@]2(C)CCCC(C)(C)[C@H]12 : 8

###

- Test system: HT29 human colon cancer
- ASSAY PROTOCOL: MTT anti-proliferative assay, HT29
- Assay type: cell-based
- EXPERIMENTAL SETUP: 72 h, Mean ± S.D. (n = 3)
MEASURE NAME: IC50 (µM)
Form entry: value (µM) — number only.

Given N.N.[Cl][Pt][Cl] [cis-platin, reference compound] , state its recorded IC50. 5.3

###

- Tested on: Bacillus cereus ATCC 11778
- ASSAY PROTOCOL: Antibacterial assay (CLSI), B. cereus
- Format: cell-based
- EXPERIMENTAL SETUP: Bacillus cereus, ATCC11778; Inactive at >128 μg/mL
MEASURE NAME: MIC (µg/mL)

a. CC(=O)OC1CC2(C)C3CCc4cocc4C3(C)CC(OC(=O)CC(=O)O)C2C2(C)CCCC(C)(C)C12 (stereo not drawn)
b. CC(=O)OC1CC2(C)C3CCC4=C(COC4=O)C3(C)CC(OC(=O)C=C(C)CC(=O)O)C2C2(C)CCCC(C)(C)C12 (stereo not drawn)
c. O=C(N[C@H](CO)[C@H](O)c1ccc([N+](=O)[O-])cc1)C(Cl)Cl [Chloramphenicol, reference compound]
Order by MIC, smallest first, the items presented above. Write out the labels following the order that was asked for. c, a, b
